Biological target: Epidermal growth factor receptor (EGFR)(L858R)(T790M) (Homo sapiens, UniProt P00533, L858R/T790M)
Sequence (P00533 25-1210 T790M/L858R limits assumed): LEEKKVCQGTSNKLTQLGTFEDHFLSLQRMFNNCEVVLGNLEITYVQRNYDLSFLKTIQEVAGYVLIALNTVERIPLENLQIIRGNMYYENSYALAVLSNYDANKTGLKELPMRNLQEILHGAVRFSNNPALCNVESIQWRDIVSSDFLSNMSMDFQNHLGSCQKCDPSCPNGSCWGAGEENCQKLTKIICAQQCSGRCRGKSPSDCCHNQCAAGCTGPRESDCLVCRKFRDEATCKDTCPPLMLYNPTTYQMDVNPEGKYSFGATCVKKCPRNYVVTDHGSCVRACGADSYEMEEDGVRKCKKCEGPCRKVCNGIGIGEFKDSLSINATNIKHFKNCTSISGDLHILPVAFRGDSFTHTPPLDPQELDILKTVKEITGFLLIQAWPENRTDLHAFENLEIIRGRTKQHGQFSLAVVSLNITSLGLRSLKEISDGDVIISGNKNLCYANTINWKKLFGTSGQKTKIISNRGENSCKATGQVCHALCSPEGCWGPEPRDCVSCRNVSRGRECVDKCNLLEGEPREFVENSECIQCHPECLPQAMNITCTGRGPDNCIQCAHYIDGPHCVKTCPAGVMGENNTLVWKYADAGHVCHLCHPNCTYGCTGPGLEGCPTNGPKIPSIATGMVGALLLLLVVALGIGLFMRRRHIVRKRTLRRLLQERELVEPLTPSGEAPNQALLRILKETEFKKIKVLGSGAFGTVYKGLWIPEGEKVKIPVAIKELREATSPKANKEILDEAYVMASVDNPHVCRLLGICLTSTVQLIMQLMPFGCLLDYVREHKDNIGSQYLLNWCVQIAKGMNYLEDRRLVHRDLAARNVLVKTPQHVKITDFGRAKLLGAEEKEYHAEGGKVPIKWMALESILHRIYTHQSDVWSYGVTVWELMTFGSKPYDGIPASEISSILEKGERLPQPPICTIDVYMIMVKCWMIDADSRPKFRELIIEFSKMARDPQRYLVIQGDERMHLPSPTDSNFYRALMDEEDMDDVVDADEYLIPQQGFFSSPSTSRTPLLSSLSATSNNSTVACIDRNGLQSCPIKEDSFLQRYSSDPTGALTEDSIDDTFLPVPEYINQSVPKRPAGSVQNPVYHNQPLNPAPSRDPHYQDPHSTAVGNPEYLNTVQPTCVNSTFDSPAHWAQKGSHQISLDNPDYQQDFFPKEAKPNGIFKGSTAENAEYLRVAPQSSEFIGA
Assay: Inhibitory Activity for EGFR (L858R/T790M) Kinase
Quick reference: IC50 of the listed items.

Compound	Unit symbol	IC50
Cc1cc2cc(n1)-c1cnn(C)c1OCCC[C@@H](C1CC1)CN1/C(=N/C2=O)Nc2cc(NCC3COC3)ccc21 [US20250034165, Example 36]	nM	0.033
Cc1cc2cc(n1)-c1cnn(C)c1OCCC[C@@H](C1CC1)CN1/C(=N/C2=O)Nc2cc(NC3CCN(C)CC3)ccc21 [US20250034165, Example 10]	nM	0.02
Cc1cc2cc(n1)-c1cnn(C)c1OCCC[C@@H](C1CC1)CN1/C(=N/C2=O)Nc2ccc(NC(=O)CCN(C)C)cc21 [US20250034165, Example 112]	nM	0.14
Cc1cc2cc(n1)-c1cnn(C)c1OCCC[C@@H](C1CC1)CN1/C(=N/C2=O)Nc2cc(NCC3CCOCC3)ccc21 [US20250034165, Example 22]	nM	0.04
Cc1cc2cc(n1)-c1cnn(C)c1OCCC[C@@H](C1CC1)CN1/C(=N/C2=O)Nc2cc(NC(C)C3(C)COC3)ccc21 (stereo partly specified) [US20250034165, Example 89]	nM	0.8
Cc1cc2cc(n1)-c1cnn(C)c1OCCC[C@@H](C1CC1)CN1/C(=N/C2=O)Nc2cc(NC(C)C3COC3)ccc21 (stereo partly specified) [US20250034165, Example 37]	nM	0.027
